B1: TMEM175 (parent)
chain: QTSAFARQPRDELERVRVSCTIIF

Variants of: B1
assay_notes: protein stability index of a GFP-peptide fusion (GPS, HEK-293T) (PSI 1-6); higher = more stable;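 note: lentivirally expressed fusions sorted by FACS into six bins by GFP to DsRed ratio, PSI derived from sequencing read proportions per bin multiplied by bin number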
condition: c terminus: a fixed tail appended

| seq_text | protein stability index |
| --- | --- |
| QTSAFARQPRDELERVAVSCTIIF [R17A] | 3.04 |
| QTSAFARQPRDELERVRVSCTIQF [I23Q] | 1.79 |
| QTSAFYRQPRDELERVRVSCTIIF [A6Y] | 2.68 |
| QTSAFARQPRDELERVRVSCAIIF [T21A] | 2 |
| QTSAFARQPRDEVERVRVSCTIIF [L13V] | 2.53 |
| QTSAFARQPRDELWRVRVSCTIIF [E14W] | 2.96 |
| QTSAFARQPRDELERVRVQCTIIF [S19Q] | 2.37 |
| QDSAFARQPRDELERVRVSCTIIF [T2D] | 3.37 |
| QTSAFARQPYDELERVRVSCTIIF [R10Y] | 2.65 |
| QTSAFARQPRDELERVRVSCPIIF [T21P] | 2.06 |
| QTSAFARQPRDEKERVRVSCTIIF [L13K] | 1.64 |
| ETSAFARQPRDELERVRVSCTIIF [Q1E] | 2.25 |
| QTSAFARQPRDELERVYVSCTIIF [R17Y] | 4.15 |
| QTSAFARQPRDEQERVRVSCTIIF [L13Q] | 1.27 |
| QTSAFAEQPRDELERVRVSCTIIF [R7E] | 1.91 |
| QTSAFARQPRDELPRVRVSCTIIF [E14P] | 3.5 |
